- study_system: human ROR1 (Homo sapiens)
- Construct: host or cells: HEK 293T cells, Tet-on system induced with doxycycline
- test_summary: ROR1 high content cell-based binding assay
- measurement_conditions: read-out: ROR1 Binding 293T Human HC Cell Based Assay IC50
Starred links: 1 amine or outer side, 2 acyl side, 3 side chain; linkers in the order of their positions; H or OH if unused. Positions of bridges follow the written chain, without caps; N, C: chain ends. Non-standard residues stand in square brackets, D forms with d. Residues, ends and D or L forms follow the SMILES beside them. X1 = CC(C)[C@H](CC(=O)[C@@H](N[*:1])C(C)C)C(=O)[*:2]; NMeF = CN[C@@H](Cc1ccccc1)C(=O)O
Assignment: determine reported IC50 for the given compounds.
Unit nM implied. Number only.

Problem: What value of IC50 has been reported for the following compound? CC(C)C[C@@H]1NC(=O)[C@H](Cc2c[nH]c3ccccc23)NC(=O)[C@H](Cc2ccccc2)NC(=O)[C@H](Cc2c[nH]c3ccccc23)NC(=O)CNC(=O)[C@H](CC(=O)O)NC(=O)[C@H](CCCNC(=N)N)NC(=O)[C@H](C(C)C)CC(=O)[C@H](C(C)C)NC(=O)[C@H](Cc2ccc(O)cc2)NC(=O)[C@H](Cc2ccccc2)NC(=O)CSC[C@@H](C(=O)NCC(N)=O)NC1=O [Example 1011] ({CH2CO}-FY[X1]RDGWFWLCG-NH2; thioether N-11)
Solution: 168

Problem: What value of IC50 has been reported for the following compound? CC(C)C[C@@H]1NC(=O)[C@H](Cc2ccc(O)cc2)NC(=O)[C@H](Cc2ccccc2)NC(=O)CSC[C@@H](C(=O)NCC(N)=O)NC(=O)[C@H](CC(C)C)NC(=O)[C@H](Cc2ccccc2)N(C)C(=O)[C@H](Cc2ccc(O)cc2)NC(=O)[C@H](Cc2c[nH]c3ccccc23)NC(=O)CNC(=O)[C@H](CO)NC(=O)[C@H](CCC(N)=O)NC(=O)[C@H](C(C)C)NC1=O [Example 1031] ({CH2CO}-FYLVQSGWY[NMeF]LCG-NH2; thioether N-12)
Solution: 214

Problem: What value of IC50 has been reported for the following compound? CC(C)C[C@@H]1NC(=O)[C@H](Cc2ccc(O)cc2)NC(=O)[C@H](Cc2ccccc2)NC(=O)CSC[C@@H](C(=O)NCC(N)=O)NC(=O)[C@H](CC(C)C)NC(=O)[C@H](Cc2ccccc2)N(C)C(=O)[C@H](Cc2ccc(O)cc2)NC(=O)[C@H](Cc2c[nH]c3ccccc23)NC(=O)CNC(=O)[C@H](CO)NC(=O)CNC(=O)[C@H](C(C)C)NC1=O [Example 1025] ({CH2CO}-FYLVGSGWY[NMeF]LCG-NH2; thioether N-12)
Solution: 365

----------
- study_system: human ROR1 (Homo sapiens)
- Construct: host or cells: HEK 293T cells, Tet-on system induced with doxycycline
- test_summary: ROR1 high content cell-based binding assay
- measurement_conditions: read-out: ROR1 Binding 293T Human HC Cell Based Assay IC50
Positions of bridges follow the written chain, without caps; N, C: chain ends. Non-standard residues stand in square brackets, D forms with d. Residues, ends and D or L forms follow the SMILES beside them. NMeF = CN[C@@H](Cc1ccccc1)C(=O)O; AEEA = NCCOCCOCC(=O)O
Assignment: determine reported IC50 for the given molecules.
Number plus unit, in that order.

Problem: What value of IC50 has been reported for the following molecule? CC(C)C[C@@H]1NC(=O)[C@H](Cc2c[nH]c3ccccc23)NC(=O)[C@H](Cc2ccc(O)cc2)NC(=O)[C@H](Cc2c[nH]c3ccccc23)NC(=O)CNC(=O)[C@H](CC(=O)O)NC(=O)[C@H](Cc2ccc(O)cc2)NC(=O)[C@H](C(C)C)NC(=O)[C@@H]2CCCN2C(=O)[C@H](Cc2ccc(O)cc2)NC(=O)[C@H](Cc2ccccc2)NC(=O)CSC[C@@H](C(N)=O)NC1=O [Example 1094] ({CH2CO}-FYPVYDGWYWLC-NH2; thioether N-12)
Solution: 14 nM

Problem: What value of IC50 has been reported for the following molecule? CC(C)C[C@@H]1NC(=O)[C@H](Cc2ccc(O)cc2)NC(=O)[C@H](Cc2ccccc2)NC(=O)CSC[C@@H](C(=O)NCC(N)=O)NC(=O)[C@H](CC(C)C)NC(=O)[C@H](Cc2ccccc2)N(C)C(=O)[C@H](Cc2ccc(O)cc2)NC(=O)[C@H](Cc2c[nH]c3ccccc23)NC(=O)CNC(=O)[C@H](CO)NC(=O)[C@H](Cc2ccc(O)cc2)NC(=O)[C@H](C)NC1=O [Example 1041] ({CH2CO}-FYLAYSGWY[NMeF]LCG-NH2; thioether N-12)
Solution: 12 nM

Problem: What value of IC50 has been reported for the following molecule? CC(C)C[C@@H]1NC(=O)[C@H](Cc2ccccc2)NC(=O)CSC[C@@H](C(=O)NCC(=O)NCCOCCOCC(=O)O)NC(=O)[C@H](C)NC(=O)[C@H](Cc2ccc(O)cc2)NC(=O)[C@H](Cc2ccc(O)cc2)NC(=O)[C@H](Cc2c[nH]c3ccccc23)NC(=O)CNC(=O)[C@H](Cc2ccc(O)cc2)NC(=O)[C@H](CCCNC(=N)N)NC(=O)[C@H](C(C)C)NC(=O)[C@H](Cc2c[nH]c3ccccc23)NC1=O [Example 1087] ({CH2CO}-FLWVRYGWYYACG[AEEA]-OH; thioether N-12)
Solution: 131 nM

Problem: What value of IC50 has been reported for the following molecule? CC(C)C[C@@H]1NC(=O)[C@H](Cc2ccc(O)cc2)NC(=O)[C@H](Cc2ccccc2)NC(=O)CSC[C@@H](C(=O)NCC(N)=O)NC(=O)[C@H](CC(C)C)NC(=O)[C@H](Cc2ccccc2)N(C)C(=O)[C@H](Cc2ccc(O)cc2)NC(=O)[C@H](Cc2c[nH]c3ccccc23)NC(=O)CNC(=O)[C@H](CCCCN)NC(=O)[C@H](Cc2ccc(O)cc2)NC(=O)[C@H](C(C)C)NC1=O [Example 1019] ({CH2CO}-FYLVYKGWY[NMeF]LCG-NH2; thioether N-12)
Solution: 27 nM

Problem: What value of IC50 has been reported for the following molecule? CC(C)C[C@@H]1NC(=O)[C@H](Cc2ccc(O)cc2)NC(=O)[C@H](Cc2ccccc2)NC(=O)CSC[C@@H](C(=O)NCC(N)=O)NC(=O)[C@H](CC(C)C)NC(=O)[C@H](Cc2ccccc2)N(C)C(=O)[C@H](Cc2ccc(O)cc2)NC(=O)[C@H](Cc2c[nH]c3ccccc23)NC(=O)[C@H](CCC(=O)O)NC(=O)[C@H](CO)NC(=O)[C@H](Cc2ccc(O)cc2)NC(=O)[C@H](C(C)C)NC1=O [Example 1053] ({CH2CO}-FYLVYSEWY[NMeF]LCG-NH2; thioether N-12)
Solution: 760 nM

----------
Assignment: determine reported IC50 for the given molecules.
- study_system: human ROR1 (Homo sapiens, UniProt Q01973)
- Construct: host or cells: HEK 293T cells, Tet-on system induced with doxycycline
- Sequence (Q01973 30-937): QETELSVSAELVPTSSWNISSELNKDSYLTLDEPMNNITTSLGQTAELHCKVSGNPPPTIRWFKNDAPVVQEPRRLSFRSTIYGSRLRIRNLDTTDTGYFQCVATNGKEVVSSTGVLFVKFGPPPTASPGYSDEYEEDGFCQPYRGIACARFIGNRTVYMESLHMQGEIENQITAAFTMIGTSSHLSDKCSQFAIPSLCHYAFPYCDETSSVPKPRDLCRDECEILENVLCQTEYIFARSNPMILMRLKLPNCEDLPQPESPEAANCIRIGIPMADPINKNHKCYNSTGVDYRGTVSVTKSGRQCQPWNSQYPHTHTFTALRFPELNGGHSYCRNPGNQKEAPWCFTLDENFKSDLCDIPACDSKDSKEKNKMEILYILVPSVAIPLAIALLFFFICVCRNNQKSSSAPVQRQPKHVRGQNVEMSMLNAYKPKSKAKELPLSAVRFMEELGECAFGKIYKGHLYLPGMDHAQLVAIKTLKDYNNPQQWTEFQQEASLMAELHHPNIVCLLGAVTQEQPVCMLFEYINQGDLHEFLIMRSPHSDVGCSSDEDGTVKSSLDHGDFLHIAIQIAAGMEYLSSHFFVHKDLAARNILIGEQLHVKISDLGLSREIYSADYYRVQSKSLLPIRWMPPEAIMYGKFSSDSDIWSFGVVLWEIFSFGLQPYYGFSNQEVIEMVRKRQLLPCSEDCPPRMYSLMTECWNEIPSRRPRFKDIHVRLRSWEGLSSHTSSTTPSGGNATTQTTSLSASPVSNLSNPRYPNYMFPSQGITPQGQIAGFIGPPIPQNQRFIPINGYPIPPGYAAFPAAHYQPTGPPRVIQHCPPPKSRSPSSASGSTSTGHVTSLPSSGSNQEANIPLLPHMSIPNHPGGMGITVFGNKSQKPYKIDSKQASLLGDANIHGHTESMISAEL
- test_summary: ROR1 high content cell-based binding assay
- measurement_conditions: read-out: ROR1 Binding 293T Human HC Cell Based Assay IC50
- Method: ROR1 high content cell-based binding assay: Human embryonic kidney 293T cells (293T) expressing human ROR1 with Tet-on system by doxycycline were used (Arctic-488134) for the assessment of inhibition of the binding of fluorescently-labeled competing peptide (“Probe”) that specifically binds to human ROR1. […] Cryopreserved vials were thawed in a 37° C. water bath. Cells were washed in assay culture media [DMEM (Life Technologies Inc. Cat. […]
Positions of bridges follow the written chain, without caps; N, C: chain ends. Non-standard residues stand in square brackets, D forms with d. Residues, ends and D or L forms follow the SMILES beside them. ξ: configuration not given here. NMeF = CN[C@@H](Cc1ccccc1)C(=O)O; ξA = CC(N)C(=O)O
Unit nM implied. Number only.

Problem: What value of IC50 has been reported for the following molecule? CC(C)C[C@@H]1NC(=O)[C@H](CO)NC(=O)[C@H](Cc2ccccc2)N(C)C(=O)CNC(=O)[C@H](Cc2ccc(O)cc2)NC(=O)[C@H](Cc2ccccc2)NC(=O)CSC[C@@H](C(N)=O)NC(=O)[C@H](Cc2c[nH]c3ccccc23)NC(=O)[C@H](Cc2ccc(O)cc2)NC1=O [Example 1111] ({CH2CO}-FYG[NMeF]SLYWC-NH2; thioether N-9)
Solution: 479

Problem: What value of IC50 has been reported for the following molecule? CC(C)C[C@@H]1NC(=O)C(C)NC(=O)[C@H](Cc2ccccc2)N(C)C(=O)CNC(=O)[C@H](Cc2ccc(O)cc2)NC(=O)[C@H](Cc2ccccc2)NC(=O)CSC[C@@H](C(N)=O)NC(=O)[C@H](Cc2c[nH]c3ccccc23)NC(=O)[C@H](Cc2ccc(O)cc2)NC1=O (some centres unmarked) [Example 1107] ({CH2CO}-FYG[NMeF][ξA]LYWC-NH2; thioether N-9)
Solution: 553

The values you see were collected from patent US20240116988A1.
